# targetOrSystem: MATE2K (Homo sapiens)
# Sequence (Q86VL8 1-566 isoform Q86VL8-3): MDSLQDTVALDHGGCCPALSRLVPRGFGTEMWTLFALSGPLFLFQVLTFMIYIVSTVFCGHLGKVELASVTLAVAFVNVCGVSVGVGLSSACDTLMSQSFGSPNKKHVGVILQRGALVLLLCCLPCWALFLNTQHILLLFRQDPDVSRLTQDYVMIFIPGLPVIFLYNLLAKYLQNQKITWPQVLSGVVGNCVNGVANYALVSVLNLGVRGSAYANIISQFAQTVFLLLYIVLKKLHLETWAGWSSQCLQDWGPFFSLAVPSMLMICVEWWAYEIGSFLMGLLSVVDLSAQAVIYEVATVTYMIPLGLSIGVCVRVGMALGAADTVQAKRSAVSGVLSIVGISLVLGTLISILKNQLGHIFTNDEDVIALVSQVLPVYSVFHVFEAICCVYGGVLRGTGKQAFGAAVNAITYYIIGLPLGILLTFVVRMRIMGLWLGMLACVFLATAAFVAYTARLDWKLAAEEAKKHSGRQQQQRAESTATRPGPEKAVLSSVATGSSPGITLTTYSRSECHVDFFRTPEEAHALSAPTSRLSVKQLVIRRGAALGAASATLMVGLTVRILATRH
propertyLabel: IC50

Bench note, MATE2K (Homo sapiens): entry COC(=O)Nc1c(N)nc(-c2nn(Cc3ccccc3F)c3ncc(F)cc23)nc1N , its IC50 = > 10 µM

----------
# targetOrSystem: UniProtKB P22310
# Sequence (P22310 29-534): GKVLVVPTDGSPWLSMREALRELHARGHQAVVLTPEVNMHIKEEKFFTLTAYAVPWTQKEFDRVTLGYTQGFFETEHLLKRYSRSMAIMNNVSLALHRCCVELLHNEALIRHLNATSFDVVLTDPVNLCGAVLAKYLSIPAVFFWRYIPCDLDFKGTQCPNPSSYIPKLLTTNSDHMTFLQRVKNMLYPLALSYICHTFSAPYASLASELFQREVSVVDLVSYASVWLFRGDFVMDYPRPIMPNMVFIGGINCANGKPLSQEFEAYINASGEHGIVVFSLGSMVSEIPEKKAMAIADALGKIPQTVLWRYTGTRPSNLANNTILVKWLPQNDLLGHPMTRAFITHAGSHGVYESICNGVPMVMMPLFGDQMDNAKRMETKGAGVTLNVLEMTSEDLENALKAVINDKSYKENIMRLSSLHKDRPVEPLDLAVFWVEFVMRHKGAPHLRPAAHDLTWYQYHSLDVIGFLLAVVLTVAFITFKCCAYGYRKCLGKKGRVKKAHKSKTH
# assayDetails: Inhibitory potency towards UGT isoforms: UGT1A4
propertyLabel: IC50

Lab book: IC50 of COC(=O)Nc1c(N)nc(-c2nn(Cc3ccccc3F)c3ncc(F)cc23)nc1N noted as > 50 µM

----------
Sequence of the target: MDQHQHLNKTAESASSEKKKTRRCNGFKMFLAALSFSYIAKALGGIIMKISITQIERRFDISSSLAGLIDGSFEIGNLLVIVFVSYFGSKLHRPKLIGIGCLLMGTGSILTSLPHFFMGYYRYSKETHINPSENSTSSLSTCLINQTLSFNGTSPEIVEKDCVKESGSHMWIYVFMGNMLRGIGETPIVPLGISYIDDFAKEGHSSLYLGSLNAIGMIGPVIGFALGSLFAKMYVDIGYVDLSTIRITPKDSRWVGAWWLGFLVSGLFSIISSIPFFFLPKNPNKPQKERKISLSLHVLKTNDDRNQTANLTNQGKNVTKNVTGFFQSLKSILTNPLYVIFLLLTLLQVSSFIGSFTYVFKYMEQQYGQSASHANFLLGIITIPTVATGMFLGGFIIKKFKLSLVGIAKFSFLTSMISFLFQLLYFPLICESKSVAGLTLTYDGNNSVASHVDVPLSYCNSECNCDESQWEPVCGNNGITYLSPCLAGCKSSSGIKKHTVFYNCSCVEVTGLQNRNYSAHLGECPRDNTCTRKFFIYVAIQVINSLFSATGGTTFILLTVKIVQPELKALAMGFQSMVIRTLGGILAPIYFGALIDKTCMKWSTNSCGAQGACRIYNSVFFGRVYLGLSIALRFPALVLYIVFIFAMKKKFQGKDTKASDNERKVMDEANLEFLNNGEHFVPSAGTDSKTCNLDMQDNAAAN
pIC50: −log10 of the molar value.
propertyLabel: pIC50

Lab book: pIC50 of COC(=O)Nc1c(N)nc(-c2nn(Cc3ccccc3F)c3ncc(F)cc23)nc1N [Vericiguat] noted as ~4.52

----------
# targetOrSystem: P-glycoprotein (Homo sapiens, UniProt P08183)
# Sequence (P08183 whole entry): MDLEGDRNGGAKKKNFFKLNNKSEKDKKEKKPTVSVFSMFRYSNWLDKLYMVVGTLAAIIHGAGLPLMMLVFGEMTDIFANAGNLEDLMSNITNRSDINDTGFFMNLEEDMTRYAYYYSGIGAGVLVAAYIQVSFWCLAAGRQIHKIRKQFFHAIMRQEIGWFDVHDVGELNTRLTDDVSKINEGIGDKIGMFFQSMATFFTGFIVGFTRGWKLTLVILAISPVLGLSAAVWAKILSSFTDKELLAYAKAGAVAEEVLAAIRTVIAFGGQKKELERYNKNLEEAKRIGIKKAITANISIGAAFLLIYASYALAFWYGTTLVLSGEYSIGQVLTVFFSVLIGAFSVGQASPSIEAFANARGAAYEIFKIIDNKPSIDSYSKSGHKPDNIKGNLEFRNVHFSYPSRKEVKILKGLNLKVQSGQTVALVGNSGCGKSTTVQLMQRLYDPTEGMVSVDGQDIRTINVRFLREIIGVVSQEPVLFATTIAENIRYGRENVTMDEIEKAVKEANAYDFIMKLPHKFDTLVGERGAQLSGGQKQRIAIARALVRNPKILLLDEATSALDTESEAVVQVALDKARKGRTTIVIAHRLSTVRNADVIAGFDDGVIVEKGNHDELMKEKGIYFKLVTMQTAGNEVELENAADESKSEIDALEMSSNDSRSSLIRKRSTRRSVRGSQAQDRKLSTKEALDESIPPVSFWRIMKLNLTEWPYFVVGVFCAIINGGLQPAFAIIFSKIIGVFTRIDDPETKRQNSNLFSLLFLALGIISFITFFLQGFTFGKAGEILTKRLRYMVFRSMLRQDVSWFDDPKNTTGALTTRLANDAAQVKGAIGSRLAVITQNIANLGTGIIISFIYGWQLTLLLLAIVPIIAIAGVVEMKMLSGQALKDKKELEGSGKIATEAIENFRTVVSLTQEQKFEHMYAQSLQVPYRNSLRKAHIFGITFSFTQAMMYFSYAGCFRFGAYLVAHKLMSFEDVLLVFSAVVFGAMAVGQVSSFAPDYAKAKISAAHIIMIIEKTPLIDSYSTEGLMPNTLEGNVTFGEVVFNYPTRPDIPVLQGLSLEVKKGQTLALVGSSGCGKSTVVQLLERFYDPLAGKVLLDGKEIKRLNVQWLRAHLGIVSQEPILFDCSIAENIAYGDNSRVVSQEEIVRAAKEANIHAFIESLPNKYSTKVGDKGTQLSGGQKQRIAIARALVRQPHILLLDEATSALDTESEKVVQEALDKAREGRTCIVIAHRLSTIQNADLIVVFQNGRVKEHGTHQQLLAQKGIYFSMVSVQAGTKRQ
pIC50: −log10 of the molar value.
propertyLabel: pIC50

Bench note, P-glycoprotein (Homo sapiens, UniProt P08183): entry COC(=O)Nc1c(N)nc(-c2nn(Cc3ccccc3F)c3ncc(F)cc23)nc1N , its pIC50 = < 4.00

FYI, the data here is from paper PMC7658073.
